system: Finegoldia magna; experiment: In vitro activity against Peptococcus magnus (ATCC 29328); assay type: functional
measured_property: MIC (µg/mL)
Lab book: enter the figure in µg/mL, no units written.

Ask | Data request, read-out MIC, for O=C(O)c1cn(C2CC2)c2cc(N3CCNCC3)c(F)cc2c1=O [CIPROFLOXACIN]
Reply | 0.25

Ask | Cl.N[C@@H]1CCN(c2nc3c(cc2F)c(=O)c(C(=O)O)cn3-c2ccc(F)cc2F)C1 ?
Reply | 0.5

Ask | Query CCC[C@@H]1C[C@@H](C(=O)N[C@@H]([C@H]2O[C@H](SC)[C@H](O)[C@@H](O)[C@H]2O)[C@H](C)Cl)N(C)C1 [CLINDAMYCIN] next
Reply | 1

Ask | And for Cl.N[C@H]1CCN(c2nc3c(cc2F)c(=O)c(C(=O)O)cn3-c2ccc(F)cc2F)C1 ?
Reply | 0.06
